experiment: viability loss with induced miR-34 in A549 – imaging, A549 dox-inducible miR-34, nuclei and caspase counts, primary screen (AID 1347080); conditions: A549 miR-34 inducible, Hoechst nuclei count, 48 h; measured here: relative caspase fold change +Dox/-Dox; note: test concentration not given here
recorded_endpoint: fold change
One number for each entry.

- O=C1OC2(c3ccc(O)cc3Oc3cc(Oc4ccc(O)cc4)ccc32)c2ccccc21 (stereo unspecified): 1.49
- CCCCC[C@@H](O)/C=C/[C@H]1[C@H](O)CC(=O)[C@@H]1CCCCCCC(=O)O: 1.39

// each compound listed below needs its fold change
1. CCCCCC(=O)CC[C@@H]1[C@@H](CCCCCCC(=O)O)[C@@H](O)C[C@H]1O
2. CC(C)(CCCCCCCCCCC(C)(C)CC(=O)O)CC(=O)O
3. CC1(C)C[C@@H]1C(=O)N/C(=C\CCCCSC[C@@H](N)C(=O)O)C(=O)O
4. Cc1ccc2nc(NC(=O)CSc3nc4c(c(=O)n3-c3ccccc3)SCC4)sc2c1
5. CCCCC/C=C\C/C=C\C/C=C\CCCCC(=O)OC
6. CCCCCCCNS(=O)(=O)c1cccc2c(Cl)cccc12
7. NC(=O)c1ccc(I)c([N+](=O)[O-])c1

Solution:
1.23
0.985
1.46
1.26
0.952
0.629
0.928

// each compound listed below needs its fold change
1. Cn1cc(/C=C2/C(=O)Nc3cccnc32)c2ccccc21
2. CCCCCCCC/C=C\CCCCCCCC(=O)OCC
3. COc1cc(Nc2ncc(F)c(Nc3ccc4c(n3)N(COP(=O)(O)O)C(=O)C(C)(C)O4)n2)cc(OC)c1OC
4. CCCCCCCCCCCCCCCNC(=O)C1CCCCC1

Solution:
1. 1.45
2. 0.399
3. 0.912
4. 0.274

// each compound listed below needs its fold change
1. COC(=O)C1=C(C)NC(C)=C([N+](=O)[O-])[C@H]1c1ccccc1C(F)(F)F
2. CCCCC[C@H](O)/C=C/[C@H]1C2COC(C2)[C@@H]1C/C=C/CCCC(=O)O (stereo partly specified)
3. CCCCC/C=C\C=C\C(O)CCCCCCCC(=O)OC[C@@H](COC(=O)CCCCCCC/C=C\C=C\C(O)CCCCC)OC(=O)CCCCCCC/C=C\C=C\C(O)CCCCC (stereo partly specified)

Solution:
1.13
0.876
1.09

// each compound listed below needs its fold change
1. CCCCCNC1=C(c2cn(C)c3ccccc23)C(=O)N(C)C1=O
2. COc1ccc(NC(=O)c2cc(OCCCN(C)C)nn2Cc2ccccc2)cc1
3. CN1Cc2c(C(=O)OC(C)(C)C)ncn2-c2ccsc2C1=O
4. COC(=O)CCC[C@H](O)[C@H](O)CO
5. CC(C)c1ccccc1S(=O)(=O)c1cc(N)c2ncccc2c1[N+](=O)[O-]

Solution:
1. 1.69
2. 1.3
3. 1.34
4. 0.845
5. 1.36
